Reported pIC50 values are given for each entry in this list.
- Tested target: BTK enzyme (Homo sapiens)
- Sequence (Q06187 whole entry): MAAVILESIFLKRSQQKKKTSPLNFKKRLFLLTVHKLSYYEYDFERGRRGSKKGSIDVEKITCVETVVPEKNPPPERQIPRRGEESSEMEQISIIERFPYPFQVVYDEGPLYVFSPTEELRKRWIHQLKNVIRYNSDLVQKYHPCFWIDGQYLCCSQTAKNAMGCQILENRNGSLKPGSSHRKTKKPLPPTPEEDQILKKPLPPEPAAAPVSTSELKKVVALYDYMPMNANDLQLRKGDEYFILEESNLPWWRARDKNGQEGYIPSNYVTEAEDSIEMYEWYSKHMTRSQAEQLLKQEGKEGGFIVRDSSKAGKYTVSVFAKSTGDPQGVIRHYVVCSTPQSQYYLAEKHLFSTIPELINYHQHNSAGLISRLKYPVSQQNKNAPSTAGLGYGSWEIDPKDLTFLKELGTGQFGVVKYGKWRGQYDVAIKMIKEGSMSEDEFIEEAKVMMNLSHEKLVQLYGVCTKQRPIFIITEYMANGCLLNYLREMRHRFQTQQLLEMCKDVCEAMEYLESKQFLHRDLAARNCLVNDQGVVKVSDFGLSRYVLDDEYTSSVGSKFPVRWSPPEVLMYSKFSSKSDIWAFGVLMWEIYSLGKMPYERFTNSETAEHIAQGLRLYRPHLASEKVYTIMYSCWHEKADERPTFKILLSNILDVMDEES
pIC50: −log10 of the molar value.

{"Compound": "Cn1cc(Nc2nccc(-c3ccc(CNC(=O)N4CC(OC(C)(C)C)C4)c(C(F)(F)F)c3)n2)cn1", "Tested target": "BTK enzyme (Homo sapiens)", "pIC50": "> 8.00"}
{"Compound": "Cc1cc(-c2ccnc(N)n2)ccc1CNC(=O)c1cnc(C2CCCO2)s1 (stereo not shown)", "Tested target": "BTK enzyme (Homo sapiens)", "pIC50": "6.00 to 7.00"}
{"Compound": "COCCn1cc(Nc2nccc(-c3ccc(CNC(=O)N4CC(OC(C)C)C4)c(C)c3)n2)cn1", "Tested target": "BTK enzyme (Homo sapiens)", "pIC50": "> 8.00"}

So what pIC50 did COCCn1cc(Nc2nccc(-c3ccc(CNC(=O)N4CC(OC(C)(C)C)C4)c(C)c3)n2)cn1 get with BTK enzyme (Homo sapiens)?
> 8.00
